# Test system: Male Long Evans rats
# Test protocol: In vivo antispermatogenic testing in Long Evans rats
# Measurement setup: 200 mg/kg single i.p. injection; […]
Observed property: Mortality (200 mg/kg)

| Compound | Mortality (200 mg/kg) |
| --- | --- |
| COC(=O)c1nn(Cc2ccc(Cl)cc2Cl)c2ccc(OC)nc12 | 0/5 |
| CCOC(=O)c1nn(Cc2ccc(Cl)cc2Cl)c2ccccc12 | 0/5 |

Look up Mortality (200 mg/kg): CCCOC(=O)c1nn(Cc2ccc(Cl)cc2Cl)c2ccccc12
0/5

Another compound: Cc1ccc2c(C(=O)O)nn(Cc3ccc(Cl)cc3Cl)c2c1
0/5

Query COC(=O)c1nn(Cc2ccc(Cl)cc2Cl)c2cc(F)ccc12 next
0/5

Same question, O=C(O)/C=C/c1nn(Cc2ccc(Cl)cc2Cl)c2ccccc12 [AF2785, reference compound] this time
2/6

Moving on to NNC(=O)c1nn(Cc2ccc(Cl)cc2Cl)c2cc(F)ccc12
2/5
